- experiment-description: Cmax in rat at 3.5 mg/kg , po administered as single dose
- Assay type: ADME, organism-based
- Parameters: dose 3.5 mg/kg, route oral
- experimental-setup: in vivo
quantity: Cmax (ng/mL)
Answers are plain numbers, in ng/mL.

For record `CC(=O)c1cc(C)c(O)c(Cc2[nH]c3ccccc3c2Cc2c(O)c(C)cc(C(C)=O)c2O)c1O` the listed Cmax is 287

====

- experiment-description: Tmax in mouse at 5 mg/kg, po administered as single dose
- Format: ADME, organism-based
- experimental-setup: in vivo
quantity: Tmax (h)
Answers are plain numbers, in h.

The compound listed as `CC(=O)c1cc(C)c(O)c(Cc2[nH]c3ccccc3c2Cc2c(O)c(C)cc(C(C)=O)c2O)c1O` shows Tmax equal to 4

====

- experiment-description: Metabolic stability in mouse liver microsomes at 2 uM after 60 mins
- Assay type: ADME, Microsome
- experimental-setup: read-out: Stability
quantity: remaining at 1 h, 2 µM (%)
Numbers only, in %.

Summary for this compound, `CC(=O)c1cc(C)c(O)c(Cc2[nH]c3ccccc3c2Cc2c(O)c(C)cc(C(C)=O)c2O)c1O` : remaining at 1 h, 2 µM is 0.8

====

- experiment-description: AUC (0 to t) in rat at 3.5 mg/kg , po administered as single dose
- Assay type: ADME, organism-based
- experimental-setup: in vivo
quantity: AUC(0-t) (µg·h/mL)
One number for each entry, in µg·h/mL.

Briefly, AUC(0-t) measured for `CC(=O)c1cc(C)c(O)c(Cc2[nH]c3ccccc3c2Cc2c(O)c(C)cc(C(C)=O)c2O)c1O` : 1.36

====

- experiment-description: Oral bioavailability in mouse at 5 mg/kg administered as single dose
- Assay type: ADME, organism-based
- experimental-setup: in vivo
quantity: bioavailability (%)
Numbers only, in %.

Notebook: `CC(=O)c1cc(C)c(O)c(Cc2[nH]c3ccccc3c2Cc2c(O)c(C)cc(C(C)=O)c2O)c1O` , bioavailability read as 5.7

====

- experiment-description: AUC (0 to t) in mouse at 0.5 mg/kg, iv administered as single dose
- Type: ADME, organism-based
- experimental-setup: in vivo
quantity: AUC(0-t) (ng·h/mL)
Numbers only, in ng·h/mL.

Reported AUC(0-t) of `CC(=O)c1cc(C)c(O)c(Cc2[nH]c3ccccc3c2Cc2c(O)c(C)cc(C(C)=O)c2O)c1O` : 269

====

- experiment-description: Cumulative drug excretion in mouse feces at 5 mg/kg, po administered as single dose measured after 72 hrs
- Format: ADME, organism-based
- experimental-setup: faeces, read-out: Drug excretion
quantity: dose excreted at 72 h

`CC(=O)c1cc(C)c(O)c(Cc2[nH]c3ccccc3c2Cc2c(O)c(C)cc(C(C)=O)c2O)c1O` has a reported dose excreted at 72 h of 38.4%

====

- experiment-description: Cumulative drug excretion in mouse urine at 0.5 mg/kg, iv administered as single dose measured after 72 hrs
- Assay type: ADME, organism-based
- experimental-setup: read-out: Drug excretion
quantity: dose excreted at 72 h (%)
Answers are plain numbers, in %.

The measured dose excreted at 72 h associated with `CC(=O)c1cc(C)c(O)c(Cc2[nH]c3ccccc3c2Cc2c(O)c(C)cc(C(C)=O)c2O)c1O` reads 0.3

====

- experiment-description: Cmax in mouse at 5 mg/kg, po administered as single dose
- Type: ADME, organism-based
- Design: dose 5 mg/kg, route oral
- experimental-setup: in vivo
quantity: Cmax

Memo: `CC(=O)c1cc(C)c(O)c(Cc2[nH]c3ccccc3c2Cc2c(O)c(C)cc(C(C)=O)c2O)c1O` , reported Cmax: 16 ng/mL
